# System Tested: hASCT2 (Homo sapiens, UniProt Q15758)
# Construct: expressed in transfected cells; host or cells: HEK293 (ATCC CRL-11268), transient transfection
# Sequence (Q15758 1-541): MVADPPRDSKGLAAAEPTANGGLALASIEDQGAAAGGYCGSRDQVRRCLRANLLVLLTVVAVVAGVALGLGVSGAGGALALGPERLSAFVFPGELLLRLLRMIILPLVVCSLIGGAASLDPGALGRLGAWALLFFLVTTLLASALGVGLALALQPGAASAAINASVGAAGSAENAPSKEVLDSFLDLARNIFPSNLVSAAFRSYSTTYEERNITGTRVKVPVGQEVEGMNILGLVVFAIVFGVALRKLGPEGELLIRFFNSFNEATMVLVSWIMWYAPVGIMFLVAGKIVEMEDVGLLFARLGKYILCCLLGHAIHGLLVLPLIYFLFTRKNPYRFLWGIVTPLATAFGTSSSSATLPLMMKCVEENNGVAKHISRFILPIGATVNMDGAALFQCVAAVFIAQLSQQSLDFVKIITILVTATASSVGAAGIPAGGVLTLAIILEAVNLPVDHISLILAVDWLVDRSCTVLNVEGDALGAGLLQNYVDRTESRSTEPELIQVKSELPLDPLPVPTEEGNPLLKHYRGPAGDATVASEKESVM
# Assay Name: Electrophysiology (whole-cell current recording) of transfected HEK293 cells, hASCT2
# Assay type: cell-based
# Assay Setup: apparent Ki in the absence of substrate, HEK293, mean ± SD; read-out: Ki hASCT2
Below is a list of entries, each paired with its recorded pKi value.
The quantity pKi is defined as the negative base-10 logarithm of the molar concentration.

Sample answers from the record:
Cc1ccccc1-c1ccc(C(=O)O[C@@H]2CN[C@H](C(=O)O)C2)cc1 : 5.95
O=C(O[C@@H]1CN[C@H](C(=O)O)C1)c1ccc(C(O)c2ccccc2)cc1 (stereo partly drawn) : 5.25
O=C(O[C@@H]1CN[C@H](C(=O)O)C1)c1ccc(-c2ccccn2)cc1 : 5.52
N[C@H](C(=O)O)[C@H](O)COC(=O)c1ccc(-c2ccccc2)cc1 : 6.08
Cc1ccccc1-c1ccc(C(=O)O[C@@H]2CN[C@H](C(=O)O)C2)cc1C : 5.04
O=C(O[C@@H]1CN[C@H](C(=O)O)C1)c1ccc(C(=O)c2ccccc2)cc1 : 4.67
O=C(Nc1cccc(C(=O)O[C@@H]2CN[C@H](C(=O)O)C2)c1)c1ccccc1 : 6.41
O=C(O[C@@H]1CN[C@H](C(=O)O)C1)c1ccc(-c2ccc(F)cc2)cc1 : 6.13

Q: What pKi appears in the records for this compound with hASCT2 (Homo sapiens, UniProt Q15758)? N[C@H](C(=O)O)[C@@H](CO)OC(=O)c1ccc(-c2ccccc2)cc1
A: 5.57

Q: Likewise for O=C(Nc1ccc(CN[C@@H]2CN[C@H](C(=O)O)C2)cc1)c1ccccc1 ?
A: 4.47

Q: N[C@H](C(=O)O)[C@@H](O)COC(=O)c1ccc(-c2ccccc2)cc1 ?
A: 5.00

Q: Next compound: O=C(N[C@@H]1CN[C@H](C(=O)O)C1)c1ccc(-c2ccccc2)cc1
A: 5.33

Q: Quick one: O=C(O)[C@H]1NC[C@@H](NCc2ccc(-c3ccccc3)cc2)[C@@H]1O
A: 5.79

Q: Record: O=C(O[C@@H]1CN[C@H](C(=O)O)C1)c1ccc(-c2ccccc2)cc1
A: 6.06

Q: And the next one, O=C(Nc1cccc(C(=O)N[C@@H]2CN[C@H](C(=O)O)C2)c1)c1ccccc1 ?
A: 3.64

Q: Moving on to O=C(O)[C@@H]1C[C@H](NCc2ccc(-c3ccc(C(F)(F)F)cc3)cc2)CN1
A: 5.94

Q: O=C(O[C@@H]1CN[C@H](C(=O)O)C1)c1ccc(Oc2ccccc2)cc1 , same question.
A: 5.38

Q: Now try O=C(Nc1ccc(C(=O)N[C@@H]2CN[C@H](C(=O)O)C2)cc1)c1ccccc1 .
A: 4.76

----------
# System Tested: rASCT2 (Rattus norvegicus)
# Construct: expressed in transfected cells; host or cells: HEK293 (ATCC CRL-11268), transient transfection
# Sequence (D3ZJ25 1-555): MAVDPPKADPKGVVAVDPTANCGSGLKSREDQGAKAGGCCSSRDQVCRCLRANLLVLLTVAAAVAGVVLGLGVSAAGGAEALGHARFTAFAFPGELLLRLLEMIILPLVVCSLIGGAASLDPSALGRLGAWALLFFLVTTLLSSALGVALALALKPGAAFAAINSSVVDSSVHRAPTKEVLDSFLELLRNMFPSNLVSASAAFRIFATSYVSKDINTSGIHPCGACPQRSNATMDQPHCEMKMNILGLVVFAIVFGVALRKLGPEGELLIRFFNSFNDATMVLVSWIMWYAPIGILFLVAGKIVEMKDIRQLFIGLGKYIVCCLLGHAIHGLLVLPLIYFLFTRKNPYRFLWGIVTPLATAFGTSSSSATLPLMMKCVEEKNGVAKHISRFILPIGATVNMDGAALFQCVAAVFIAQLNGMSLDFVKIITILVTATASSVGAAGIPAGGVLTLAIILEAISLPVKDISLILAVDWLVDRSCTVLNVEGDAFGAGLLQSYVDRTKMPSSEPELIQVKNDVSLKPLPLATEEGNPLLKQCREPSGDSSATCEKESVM
# Assay Name: Competition experiment with alanine, rASCT2
# Assay type: cell-based
# Assay Setup: 0.5 mM ala; second entry of the cell; read-out: Competition Expt (h/rASCT2 Ki): rASCT2 Ki
# Ki per entry

O=C(OC[C@]1(O)CN[C@H](C(=O)O)C1)c1ccc(-c2ccccc2)cc1 : 170 µM

Then there is this molecule:
Q: Returns the measured Ki for the input molecule. Input: O=C(O[C@@]1(CO)CN[C@H](C(=O)O)C1)c1ccc(-c2ccccc2)cc1
A: 12.9 µM

----------
# System Tested: hASCT1 (Homo sapiens)
# Construct: expressed in transfected cells; host or cells: HEK293 (ATCC CRL-11268), transient transfection
# Sequence (P43007 whole entry): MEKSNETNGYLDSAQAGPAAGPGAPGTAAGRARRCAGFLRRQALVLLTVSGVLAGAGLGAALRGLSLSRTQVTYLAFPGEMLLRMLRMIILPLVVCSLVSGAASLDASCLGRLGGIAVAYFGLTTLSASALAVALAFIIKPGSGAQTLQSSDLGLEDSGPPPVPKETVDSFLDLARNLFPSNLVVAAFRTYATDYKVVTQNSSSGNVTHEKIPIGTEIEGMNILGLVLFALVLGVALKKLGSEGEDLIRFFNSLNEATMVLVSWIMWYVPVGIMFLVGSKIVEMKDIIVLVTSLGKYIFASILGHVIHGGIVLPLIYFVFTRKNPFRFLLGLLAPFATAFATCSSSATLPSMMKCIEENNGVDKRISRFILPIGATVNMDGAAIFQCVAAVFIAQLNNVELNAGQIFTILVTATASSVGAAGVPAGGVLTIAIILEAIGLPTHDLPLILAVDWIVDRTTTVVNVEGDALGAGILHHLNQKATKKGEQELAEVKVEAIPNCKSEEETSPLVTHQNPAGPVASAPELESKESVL
# Assay Name: Electrophysiology (whole-cell current recording) of transfected HEK293 cells, hASCT1
# Format: cell-based
# Assay Setup: Table 3, dihydroxyproline derivatives; read-out: Ki All DNA: hASCT1
Observation Type: pKi
Friendly reminder that pKi comes from taking -log10 of the concentration in mol/L.

In the examples that follow, each entry is paired with its recorded pKi.
O=C(OC[C@@]1(O)CN[C@H](C(=O)O)C1)c1ccc(-c2ccc(F)cc2)cc1 : 5.51
O=C(OC[C@@]1(O)CN[C@H](C(=O)O)C1)c1ccc(-c2ccccc2)cc1 : 5.18
O=C(OC[C@@]1(O)CN[C@H](C(=O)O)C1)c1ccc(C(=O)c2ccccc2)cc1 : 4.73
O=C(OC[C@]1(O)CN[C@H](C(=O)O)C1)c1ccc(-c2ccccc2)cc1 : 4.23
O=C(O[C@]1(CO)CN[C@H](C(=O)O)C1)c1ccc(Oc2ccccc2)cc1 : 4.91

Moving on to the next molecule.
Q: Look up pKi: O=C(OC[C@@]1(O)CN[C@H](C(=O)O)C1)c1ccc(-c2ccc(C(F)(F)F)cc2)cc1
A: 8.70

----------
Catalogue of log10 of Ki values
# System Tested: rASCT2 (Rattus norvegicus)
# Construct: expressed in transfected cells; host or cells: HEK293 (ATCC CRL-11268), transient transfection
# Sequence (D3ZJ25 1-555): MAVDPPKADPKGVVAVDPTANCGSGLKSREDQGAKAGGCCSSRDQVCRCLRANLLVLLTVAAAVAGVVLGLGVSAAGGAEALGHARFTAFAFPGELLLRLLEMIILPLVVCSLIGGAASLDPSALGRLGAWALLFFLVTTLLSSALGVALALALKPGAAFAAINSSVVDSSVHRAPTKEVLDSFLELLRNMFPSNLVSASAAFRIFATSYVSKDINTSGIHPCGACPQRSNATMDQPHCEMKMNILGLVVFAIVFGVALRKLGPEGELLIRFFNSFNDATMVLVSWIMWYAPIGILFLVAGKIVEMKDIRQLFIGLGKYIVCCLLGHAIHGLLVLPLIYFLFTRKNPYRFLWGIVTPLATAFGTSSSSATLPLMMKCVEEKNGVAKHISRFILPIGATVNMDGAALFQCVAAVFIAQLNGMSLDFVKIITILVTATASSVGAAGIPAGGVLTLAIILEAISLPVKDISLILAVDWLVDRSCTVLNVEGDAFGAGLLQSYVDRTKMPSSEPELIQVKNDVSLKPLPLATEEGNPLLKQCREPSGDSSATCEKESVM
# Assay Name: Electrophysiology (whole-cell current recording) of transfected HEK293 cells, rASCT2
# Format: cell-based
# Assay Setup: Table 3, dihydroxyproline derivatives; read-out: Ki All DNA: rASCT2
# log10 transformed; quantity=Ki; unit=µM

Q: Recorded log10 of Ki for O=C(OC[C@@]1(O)CN[C@H](C(=O)O)C1)c1ccc(C(O)c2ccccc2)cc1 (some centres unmarked) , please?
A: 2.37

Q: And then O=C(OC[C@@]1(O)CN[C@H](C(=O)O)C1)c1ccc(-c2ccc(C(F)(F)F)cc2)cc1 , what is it?
A: -2.30

Q: Now the same for O=C(O[C@]1(CO)CN[C@H](C(=O)O)C1)c1ccc(Oc2ccccc2)cc1
A: 1.30

Q: And the next one, O=C(OC[C@@]1(O)CN[C@H](C(=O)O)C1)c1ccc(C(=O)c2ccccc2)cc1 ?
A: 1.95

Q: Can you check O=C(O[C@]1(CO)CN[C@H](C(=O)O)C1)c1ccc(-c2ccc(C(F)(F)F)cc2)cc1 next?
A: 0.52

Q: What do we get for O=C(OC[C@@]1(O)CN[C@H](C(=O)O)C1)c1ccc(-c2ccccc2)cc1 ?
A: 0.59

Q: For O=C(OC[C@@]1(O)CN[C@H](C(=O)O)C1)c1ccc(-c2cccc(F)c2)cc1F then?
A: 0.69

Q: Proceed to O=C(OC[C@]1(O)CN[C@H](C(=O)O)C1)c1ccc(-c2ccc(F)cc2)cc1
A: 1.44
